B1: PhoQ; a variant is named by its letters at X, in order, P23837 (parent)
chain: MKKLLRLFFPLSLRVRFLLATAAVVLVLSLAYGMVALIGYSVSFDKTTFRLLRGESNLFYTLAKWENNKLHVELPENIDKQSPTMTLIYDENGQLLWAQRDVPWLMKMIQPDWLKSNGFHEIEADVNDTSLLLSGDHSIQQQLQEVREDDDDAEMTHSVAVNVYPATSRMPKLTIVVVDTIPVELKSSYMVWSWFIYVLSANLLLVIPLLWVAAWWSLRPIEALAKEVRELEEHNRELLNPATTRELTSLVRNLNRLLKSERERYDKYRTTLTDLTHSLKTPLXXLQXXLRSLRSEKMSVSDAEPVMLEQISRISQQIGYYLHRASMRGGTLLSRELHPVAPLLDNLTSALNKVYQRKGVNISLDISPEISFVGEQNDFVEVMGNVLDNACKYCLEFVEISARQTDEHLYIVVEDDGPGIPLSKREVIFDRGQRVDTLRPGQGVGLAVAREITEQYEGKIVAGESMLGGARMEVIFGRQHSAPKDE

- Variants of: B1
- PROTOCOL_SUMMARY: enrichment ratio after two sorts for PhoP signalling (ratio (wild type AVST 3.29)); higher = more functional
- ASSAY_SETUP: with PhoP (E. coli)
Over roughly 140,000 sequences, “enrichment ratio after two sorts for PhoP signalling” has its median near 0; the highest 2% begin near 11. Shown is part of a subset that was picked to be rich in the highest values.
Readings of enrichment ratio for the listed variants

Check out these entries, answers already filled in.
- MUTATION_LIST: "MLWE"
  enrichment ratio: "≤ 0.25"
- MUTATION_LIST: "NCQG"
  enrichment ratio: "≤ 0.25"
- MUTATION_LIST: "MEST"
  enrichment ratio: 5.63
- MUTATION_LIST: "GIST"
  enrichment ratio: 8.78
- MUTATION_LIST: "SVCC"
  enrichment ratio: 16.1
- MUTATION_LIST: "TVEN"
  enrichment ratio: "≤ 0.25"
- MUTATION_LIST: "GESK"
  enrichment ratio: "≤ 0.25"
- MUTATION_LIST: "TNST"
  enrichment ratio: 12.6

enrichment ratio in this record for SCVL : 1.96

For SCWM the variant record lists enrichment ratio as ≤ 0.25
